System: SK-OV-3 ovarian
Method Description: NCI tumour cell line growth inhibition, 48 h
Value Kind: TGI

Give TGI for the following molecule: Clc1cc2ncn(C3CCCCO3)c2cc1Cl (centres undefined)
> 100 µM

Give TGI for the following molecule: Cc1cc(C)n2c(nc3ccccc32)c1C#N
> 100 µM

In one line, give reported TGI of the entry CN(C)C(=O)Oc1ccc(C(=S)Nc2ccccc2)cc1 .
> 100 µM

###

System: IGROV1 ovarian
Method Description: NCI tumour cell line growth inhibition, 48 h
Entries and their measured TGI follow.

Take a look at these entries with their results.
Compound	TGI
CN(C)c1ccc(O[Si](Oc2ccc(N(C)C)cc2)(Oc2ccc(N(C)C)cc2)Oc2ccc(N(C)C)cc2)cc1	> 100 µM
C/C(Nc1ccc(Cl)cc1)=C1/CCOC1=O	> 100 µM
C#CCOC(=O)C(=[N+]=[N-])C(=O)CC(C)C	> 10 µM
CCOC(=O)c1csc(NC(=O)C(C)N2CCOCC2)n1 (centres undefined)	> 100 µM
CCCCC[C@@H](C/C=C/CCC(=O)NC/C(=C/Cl)[C@H]1C(=O)C(C)(C)C(=O)[C@@H](C)[C@@]1(C)O)OC	31.3 µM

Please list TGI recorded for the compound CN(C)c1ccc(C2CC(C)(O)Oc3cc4c(cc32)OCO4)cc1 (centres undefined)
> 100 µM

Determine its reported TGI: COc1ccc(C(=O)O/N=C2/CCCCC2CN(C)C)cc1 (centres undefined)
> 100 µM

Answer with the recorded TGI for the compound listed here: O=C1C=C/C(=C/[C@H]2SSC=C[C@]23C=CC(=O)C3)C1
48 µM

Provide only the value of recorded TGI for C(=C\c1c2oc(-c3ccccc3)cc(-c3ccccc3)c-2c2ccccc12)/C=C1\c2ccccc2-c2c(-c3ccccc3)cc(-c3ccccc3)[o+]c21
> 100 µM

Please look at this compound and report its TGI: CC1CCCN1CCCOC(=O)c1ccc(OC2C=CCCC2)cc1 (centres undefined)
58.4 µM

Identify measured TGI corresponding to NC(N)=N/N=C/c1c(-c2ccncc2)nc2sc(Cl)cn12
> 100 µM

# return recorded TGI for entry O=C(/C(=C/c1ccc(O)cc1)c1ccccc1)c1ccccc1
38.3 µM

Give me measured TGI, please, for this compound: C#CC#CC#CC#CC#CC#CC#CC#CC[C@@H]1OC[C@@H](COC(=O)O[C@@H](C(=O)O[C@H]2C[C@@]3(O)[C@@H](OC(=O)c4ccccc4)[C@@H]4[C@]5(OC(C)=O)CO[C@@H]5C[C@H](O)[C@@]4(C)C(=O)[C@H](OC(C)=O)C(=C2C)C3(C)C)[C@@H](NC(=O)c2ccccc2)c2ccccc2)O1
> 33.3 µM

// Input: O=c1nc2[nH]c3c(-c4n[nH]c(=O)[nH]c4=O)cccc3c2n[nH]1 . Output its TGI only.
> 100 µM

Consider the compound COc1ccc(N=Nc2c(N)nn3c(SC)c(C#N)c(N)nc23)cc1 and give its recorded TGI.
4.19 µM

Return reported TGI. Input compound: CN(C)C(=O)Oc1ccc(C(=S)Nc2ccccc2)cc1
> 100 µM

Item NC(=O)c1ncn(C2OC(CO)C(O)C2O)c1N (centres undefined) : provide TGI
> 100 µM

Assign TGI to the following record: Nc1ccc(C(=O)/C=C/c2ccccc2O)cc1
> 100 µM

Return value of TGI for input CCN(CC)CCNc1ccc([N+](=O)[O-])c2sc3cc(Cl)ccc3c(=O)c12 , no commentary.
5.23 µM
